Please provide measured solubility for the entries that follow.
assay: Water solubility of the compound; assay type: physicochemical
Field: numeric (µM). Do not append units.

Any idea what solubility was measured for O=C(O)[C@@H](CO)NCc1cc(Cl)c(OCc2cccc(-c3cccc(OCCCN4CCC(O)CC4)c3)c2F)cc1OCc1ccc2nonc2c1 ?
23.6

Now this one: CCOC(=O)[C@@H](CO)NCc1cc(Cl)c(OCc2cccc(-c3cccc(OCCCN4CCC(O)CC4)c3)c2F)cc1OCc1ccc2nonc2c1.Cl.Cl
9.52

====

Please provide measured IC50 for the entries that follow.
molecular target: Programmed cell death protein 1/Programmed cell death 1 ligand 1 (Homo sapiens); assay: Inhibition of PD-1/PD-L1 interaction (unknown origin) incubated for 15 min by HTRF assay
Field: numeric (nM). Do not append units.

Entry O=C(O)[C@@H](CO)NCc1cc(Cl)c(OCc2cccc(-c3cccc(OCCCNS(=O)(=O)N4CCOCC4)c3)c2Cl)cc1OCc1ccc2nonc2c1 , system Programmed cell death protein 1/Programmed cell death 1 ligand 1 (Homo sapiens): what IC50 was measured?
87.6

Now this one: O=C(O)[C@@H](CO)NCc1cc(Cl)c(OCc2cccc(-c3cccc(OCCCCN4CCOCC4)c3)c2F)cc1OCc1ccc2nonc2c1
21.2

Now this one: O=C(O)[C@@H](CO)NCc1cc(Cl)c(OCc2cccc(-c3cccc(OCCCNCCO)c3)c2Cl)cc1OCc1ccc2nonc2c1
6.1

Now this one: CCOC(=O)[C@@H](CO)NCc1cc(Cl)c(OCc2cccc(-c3cccc(OCCCN4CCC(O)CC4)c3)c2F)cc1OCc1ccc2nonc2c1.Cl.Cl
786

Now this one: O=C(O)[C@@H](CO)NCc1cc(Cl)c(OCc2cccc(-c3cccc(OCCCNCCN4CCCCC4)c3)c2Cl)cc1OCc1ccc2nonc2c1
23.8

Now this one: O=C(O)[C@@H](CO)NCc1cc(Cl)c(OCc2cccc(-c3cccc(OCCCN4CCOCC4)c3)c2Cl)cc1OCc1ccc2nonc2c1
34.7

Now this one: O=C(O)[C@@H](CO)NCc1cc(Cl)c(OCc2cccc(-c3cccc(OCCN4CCC(O)CC4)c3)c2Cl)cc1OCc1ccc2nonc2c1
40.5

Now this one: O=C(O)[C@@H](CO)NCc1cc(Cl)c(OCc2cccc(-c3cccc(OCCCN4CCC(O)CC4)c3)c2F)cc1OCc1ccc2nonc2c1
13

Now this one: O=C(O)[C@@H](CO)NCc1cc(Cl)c(OCc2cccc(-c3cccc(OCCCN4CCC(O)CC4)c3)c2Cl)cc1OCc1ccc2nonc2c1
2.02

Now this one: O=C(O)[C@@H](CO)NCc1cc(Cl)c(OCc2cccc(-c3cccc(OCCCN4CCOCC4)c3)c2F)cc1OCc1ccc2nonc2c1
12.5

Now this one: O=C(O)C1CCN(CCCCOc2cccc(-c3cccc(COc4cc(OCc5ccc6nonc6c5)c(CN[C@H](CO)C(=O)O)cc4Cl)c3Cl)c2)CC1
8.8

Now this one: COP(=O)(NCCCOc1cccc(-c2cccc(COc3cc(OCc4ccc5nonc5c4)c(CN[C@H](CO)C(=O)O)cc3Cl)c2Cl)c1)OC
746

Now this one: O=C(O)[C@@H](CO)NCc1cc(Cl)c(OCc2cccc(-c3cccc(OCCCCN4CCC(O)CC4)c3)c2F)cc1OCc1ccc2nonc2c1
3.1

Now this one: O=C(O)[C@@H](CO)NCc1cc(Cl)c(OCc2cccc(-c3cccc(OCCN4CCOCC4)c3)c2Cl)cc1OCc1ccc2nonc2c1
121

Now this one: CCN(CC)C(=O)CCOc1cccc(-c2cccc(COc3cc(OCc4ccc5nonc5c4)c(CN[C@H](CO)C(=O)O)cc3Cl)c2Cl)c1
187

Now this one: O=C(O)[C@@H](CO)NCc1cc(Cl)c(OCc2cccc(-c3cccc(OCCCCN4CCC(CO)CC4)c3)c2Cl)cc1OCc1ccc2nonc2c1
3.5

Now this one: O=C(O)[C@@H](CO)NCc1cc(Cl)c(OCc2cccc(-c3cccc(OCCCCN4CCC(O)CC4)c3)c2Cl)cc1OCc1ccc2nonc2c1
3.3

Now this one: O=C(O)[C@@H](CO)NCc1cc(Cl)c(OCc2cccc(-c3cccc(OCCN(CCO)CCO)c3)c2Cl)cc1OCc1ccc2nonc2c1
109

Now this one: O=C(O)[C@@H](CO)NCc1cc(Cl)c(OCc2cccc(-c3cccc(OCCCN(CCO)CCO)c3)c2Cl)cc1OCc1ccc2nonc2c1
5.4

Now this one: CCN(CC)CCCOc1cccc(-c2cccc(COc3cc(OCc4ccc5nonc5c4)c(CN[C@H](CO)C(=O)O)cc3Cl)c2Cl)c1
78.3

Now this one: O=C(O)[C@@H](CO)NCc1cc(Cl)c(OCc2cccc(-c3cccc(OCCCCN(CCO)CCO)c3)c2Cl)cc1OCc1ccc2nonc2c1
8.2

Now this one: O=C(O)[C@@H](CO)NCc1cc(Cl)c(OCc2cccc(-c3cccc(OCCCCN4CCNCC4)c3)c2Cl)cc1OCc1ccc2nonc2c1
42.1

====

molecular target: Programmed cell death 1 ligand 1 (Mus musculus, UniProt Q9EP73)
Sequence (Q9EP73 whole entry): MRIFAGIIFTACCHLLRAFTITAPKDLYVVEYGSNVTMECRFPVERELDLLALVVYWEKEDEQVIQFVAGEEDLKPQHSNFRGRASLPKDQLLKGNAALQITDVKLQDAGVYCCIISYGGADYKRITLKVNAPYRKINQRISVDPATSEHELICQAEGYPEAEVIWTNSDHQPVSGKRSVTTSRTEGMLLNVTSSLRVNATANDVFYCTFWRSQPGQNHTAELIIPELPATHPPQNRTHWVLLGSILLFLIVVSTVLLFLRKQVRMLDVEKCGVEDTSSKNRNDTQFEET
ASSAY_METRIC: pKd
Reminder that pKd means the negative base-10 logarithm of the concentration expressed in mol/L.

Any idea what pKd was measured for O=C(O)[C@@H](CO)NCc1cc(Cl)c(OCc2cccc(-c3cccc(OCCCN4CCC(O)CC4)c3)c2F)cc1OCc1ccc2nonc2c1 ?
7.50

====

biological target: Programmed cell death protein 1/Programmed cell death 1 ligand 1 (Homo sapiens); test: Inhibition of interaction of human PD-1 expressed in Jurkat T cells co-transfected with NFAT/human PD-L1 expressed in CHO-K1 cells co-expressing aAPC preincubated with CHO-K1 cells followed by Jurkat cell addition and measured after 6 hrs by automated microplate spectrophotometer analysis; assay type: cell-based
Please provide measured EC50 for the entries that follow.
Field: numeric (nM). Do not append units.

Any idea what EC50 was measured for O=C(O)[C@@H](CO)NCc1cc(Cl)c(OCc2cccc(-c3cccc(OCCCN(CCO)CCO)c3)c2Cl)cc1OCc1ccc2nonc2c1 ?
353

Now this one: O=C(O)[C@@H](CO)NCc1cc(Cl)c(OCc2cccc(-c3cccc(OCCCN4CCC(O)CC4)c3)c2F)cc1OCc1ccc2nonc2c1
153

Now this one: O=C(O)[C@@H](CO)NCc1cc(Cl)c(OCc2cccc(-c3cccc(OCCCN4CCC(O)CC4)c3)c2Cl)cc1OCc1ccc2nonc2c1
158

====

Please provide measured Activity for the entries that follow.
molecular target: Programmed cell death protein 1/Programmed cell death 1 ligand 1 (Homo sapiens, UniProt Q15116+Q9NZQ7); assay: Inhibition of interaction of human PD-1 expressed in Jurkat T cells co-transfected with NFAT/human PD-L1 expressed in CHO-K1 cells co-expressing aAPC assessed as maximum relative light unit preincubated with CHO-K1 cells followed by Jurkat cell addition and measured after 6 hrs by automated microplate spectrophotometer analysis; type: cell-based
Sequence (Q15116 whole entry): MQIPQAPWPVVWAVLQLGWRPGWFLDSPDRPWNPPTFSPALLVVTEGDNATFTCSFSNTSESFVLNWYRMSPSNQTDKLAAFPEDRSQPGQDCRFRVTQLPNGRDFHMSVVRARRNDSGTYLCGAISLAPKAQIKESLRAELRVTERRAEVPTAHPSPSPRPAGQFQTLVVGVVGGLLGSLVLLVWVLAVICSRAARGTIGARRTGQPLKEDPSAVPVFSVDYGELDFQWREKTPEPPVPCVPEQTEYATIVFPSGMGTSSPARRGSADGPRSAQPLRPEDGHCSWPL
Sequence (Q9NZQ7 whole entry): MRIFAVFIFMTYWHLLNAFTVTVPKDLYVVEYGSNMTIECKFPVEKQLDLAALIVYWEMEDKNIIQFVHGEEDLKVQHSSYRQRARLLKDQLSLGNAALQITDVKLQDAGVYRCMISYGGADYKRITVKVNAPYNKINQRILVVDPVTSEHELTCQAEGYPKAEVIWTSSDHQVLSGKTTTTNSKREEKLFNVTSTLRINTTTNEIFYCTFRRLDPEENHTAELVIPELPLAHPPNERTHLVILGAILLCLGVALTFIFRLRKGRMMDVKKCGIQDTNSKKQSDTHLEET
Field: numeric (RLU). Do not append units.

Any idea what Activity was measured for O=C(O)[C@@H](CO)NCc1cc(Cl)c(OCc2cccc(-c3cccc(OCCCN4CCC(O)CC4)c3)c2Cl)cc1OCc1ccc2nonc2c1 ?
2.2

Now this one: O=C(O)[C@@H](CO)NCc1cc(Cl)c(OCc2cccc(-c3ccccc3)c2Br)cc1OCc1ccc2nonc2c1
1.8

Now this one: O=C(O)[C@@H](CO)NCc1cc(Cl)c(OCc2cccc(-c3cccc(OCCCN(CCO)CCO)c3)c2Cl)cc1OCc1ccc2nonc2c1
2

Now this one: O=C(O)[C@@H](CO)NCc1cc(Cl)c(OCc2cccc(-c3cccc(OCCCN4CCC(O)CC4)c3)c2F)cc1OCc1ccc2nonc2c1
2.3

====

experiment: Half life in Sprague-Dawley rat at 50 mg/kg, po measured upto 24 hrs by LC-MS/MS analysis; format: ADME, organism-based; settings: in vivo
ASSAY_METRIC: half-life (h)
Field: numeric (h). Do not append units.

Any idea what half-life was measured for O=C(O)[C@@H](CO)NCc1cc(Cl)c(OCc2cccc(-c3cccc(OCCCN4CCC(O)CC4)c3)c2F)cc1OCc1ccc2nonc2c1 ?
5.3

====

Please provide measured Kd for the entries that follow.
target: Programmed cell death 1 ligand 1 (Homo sapiens); experiment: Binding affinity to his-tagged human PD-L1 assessed as dissociation constant by SPR analysis
Sequence (Q9NZQ7 whole entry): as above
Field: numeric (µM). Do not append units.

Any idea what Kd was measured for O=C(O)[C@@H](CO)NCc1cc(Cl)c(OCc2cccc(-c3cccc(OCCCN(CCO)CCO)c3)c2Cl)cc1OCc1ccc2nonc2c1 ?
0.0341

Now this one: O=C(O)[C@@H](CO)NCc1cc(Cl)c(OCc2cccc(-c3cccc(OCCCN4CCC(O)CC4)c3)c2Cl)cc1OCc1ccc2nonc2c1
0.0229

Now this one: O=C(O)[C@@H](CO)NCc1cc(Cl)c(OCc2cccc(-c3cccc(OCCCN4CCC(O)CC4)c3)c2F)cc1OCc1ccc2nonc2c1
0.002

====

test: Stability in human liver microsomes assessed as half life; assay type: ADME, Microsome
ASSAY_METRIC: half-life (h)
Field: numeric (h). Do not append units.

Any idea what half-life was measured for O=C(O)[C@@H](CO)NCc1cc(Cl)c(OCc2cccc(-c3cccc(OCCCN4CCC(O)CC4)c3)c2F)cc1OCc1ccc2nonc2c1 ?
1.95
